# ASSAYED SYSTEM: T305D,S472D variant of Akt-3 (Homo sapiens, UniProt Q9Y243, S472D/T305D)
# Construct: made in house; host or cells: E. coli BL21 DE3 (pGEX-4T-3)
# Sequence (Q9Y243 whole entry T305D/S472D): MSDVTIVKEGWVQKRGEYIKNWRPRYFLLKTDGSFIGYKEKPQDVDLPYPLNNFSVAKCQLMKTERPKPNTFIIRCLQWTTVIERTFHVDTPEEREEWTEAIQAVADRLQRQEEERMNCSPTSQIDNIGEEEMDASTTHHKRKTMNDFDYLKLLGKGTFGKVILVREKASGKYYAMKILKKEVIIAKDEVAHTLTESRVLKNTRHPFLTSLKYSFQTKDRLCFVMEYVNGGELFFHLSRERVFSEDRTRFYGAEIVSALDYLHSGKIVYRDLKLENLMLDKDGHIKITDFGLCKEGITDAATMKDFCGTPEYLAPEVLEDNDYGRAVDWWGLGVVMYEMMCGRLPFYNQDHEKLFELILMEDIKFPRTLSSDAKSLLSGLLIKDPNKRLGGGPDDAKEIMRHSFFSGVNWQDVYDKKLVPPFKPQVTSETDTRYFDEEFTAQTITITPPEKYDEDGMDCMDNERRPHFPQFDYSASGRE
# ASSAY SUMMARY: Akt-3 histone H2B phosphorylation assay (GST fusion protein from E. coli, phosphorimager after SDS-PAGE)
# Format: biochemical
# CONDITION: tested at a concentration of 10 FM
PROPERTY NAME: effect on the activity of the T305D,S472D variant of Akt-3

Worked cases, effect on the activity of the T305D,S472D variant of Akt-3 given:
O=S(=O)(NCCNCC=Cc1ccccc1)c1cccc2cnccc12 = no significant effect
O=S(=O)(NCCNC/C=C/c1ccc(Br)cc1)c1cccc2cnccc12 = no significant effect
Cn1c2ccccc2c2c3c(c4c5ccccc5n(CCC#N)c4c21)CNC3=O = no significant effect
COc1cccc(-c2cc(=O)c3ccccc3o2)c1N = no significant effect

Memo: `CCCCCCOC(=O)[C@]1(O)C[C@@H]2O[C@@]1(C)n1c3ccccc3c3c4c(c5c6ccccc6n2c5c31)C(=O)NC4` , reported effect on the activity of the T305D,S472D variant of Akt-3: no significant effect

Memo: `CN([C@@H](Cc1ccc(OS(=O)(=O)c2cccc3cnccc23)cc1)C(=O)N1CCN(c2ccccc2)CC1)S(=O)(=O)c1cccc2cnccc12` , reported effect on the activity of the T305D,S472D variant of Akt-3: no significant effect

Memo: `CN(C)CCCn1cc(C2=C(c3c[nH]c4ccccc34)C(=O)NC2=O)c2ccccc21` , reported effect on the activity of the T305D,S472D variant of Akt-3: no significant effect
